Values from the kinase profiling compilation of Christmann-Franck et al. (2016)

STUDY_TARGET: CDKL1 (human)
ASSAY_PROCEDURE: KINOMEscan competition binding
PROTOCOL_CONDITIONS: compound 10.0 µM
QUANTITY_KIND: kinase still bound, per cent of control

Request: Recorded kinase still bound, per cent of control for `Cc1ccc2nc(NCCN)c3ncc(C)n3c2c1` with CDKL1 (human), please?
Response: 74%

Request: Hi! What's the reported kinase still bound, per cent of control for `O=C1Nc2ccc(I)cc2/C1=C/c1cc(Br)c(O)c(Br)c1` on CDKL1 (human)?
Response: 84%

Request: Reported kinase still bound, per cent of control for CDKL1 (human), given `N#Cc1c(NC(=O)c2cccc3ccccc23)sc2c1CCCC2` ?
Response: 73%

Request: Entry `CCOc1cc2ncc(C#N)c(Nc3ccc(OCc4ccccn4)c(Cl)c3)c2cc1NC(=O)/C=C/CN(C)C` , system CDKL1 (human): what kinase still bound, per cent of control was measured?
Response: 100%

Request: API: value(readout= kinase still bound, per cent of control, system= CDKL1 (human), query= `CN(C)C/C=C/C(=O)Nc1cccc(Nc2ncc3c(n2)N(C)c2ccccc2C(=O)N3C)c1` )
Response: 83%
